Values compiled from paper PMC12658632.

- testedSystem: HsrA (Helicobacter pylori, UniProt O25684)
- Construct: gene HP_1043
- Sequence (O25684 entry or part of it): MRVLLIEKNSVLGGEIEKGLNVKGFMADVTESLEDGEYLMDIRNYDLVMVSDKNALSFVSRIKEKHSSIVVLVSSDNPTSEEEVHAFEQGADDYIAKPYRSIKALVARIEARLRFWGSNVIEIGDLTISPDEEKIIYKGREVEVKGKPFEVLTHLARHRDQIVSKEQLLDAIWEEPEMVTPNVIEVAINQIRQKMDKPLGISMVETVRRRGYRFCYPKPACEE
- testDescription: SPR (Biacore T200, […] model); also EMSA inhibition of HsrA-DNA binding
observedProperty: pKd
Please keep in mind that pKd is minus log10 of the molar concentration; only the number is needed.

compound c1cc2c(cc1O[C@H]1OC[C@H]3[C@@H]1CO[C@@H]3c1ccc3c(c1)OCO3)OCO2 [compound 3, Sesamolin] , pKd observed: 7.77
